From: ChEMBL document CHEMBL5512598

ASSAY_INFO: Clearance in mouse at 10 mg/kg, po measured upto 24 hrs by LC-MS/MS analysis
Type: ADME, organism-based
DETAILS: in vivo

[
  {
    "MOLECULE": "COc1cc(-c2cn(C)c(=O)c3cnccc23)cc(Cl)c1CN1CCC(C2CCN(C(=O)c3ccc(NC4CCC(=O)NC4=O)cc3C(F)(F)F)CC2)CC1 (stereo unspecified)",
    "CL/F [mL/min/kg]": 30
  }
]

====

ASSAY_INFO: Clearance in Sprague-Dawley rat at 0.5 mg/kg, iv
Format: ADME, organism-based
DETAILS: in vivo

[
  {
    "COMPOUND": "COc1cc(-c2cn(C)c(=O)c3cnccc23)cc(Cl)c1CN1CCC(C2CCN(C(=O)c3ccc(NC4CCC(=O)NC4=O)cc3C(F)(F)F)CC2)CC1 (stereo unspecified)",
    "UNIT_TEXT": "mL/min/kg",
    "clearance": 74
  }
]

====

ASSAY_INFO: Oral bioavailability in rat at 5 mg/kg by LC-MS/MS analysis
Assay type: ADME, organism-based
DETAILS: in vivo
VALUE_TYPE: bioavailability (%)

[
  {
    "COMPOUND": "N#Cc1ccc(O[C@H]2CC[C@H](NC(=O)c3ccc(N4CCC(CN5CCN(c6cc7c(cc6F)C(=O)N(C6CCC(=O)NC6=O)C7=O)CC5)CC4)nn3)CC2)cc1Cl (stereo partly specified) [BAVDEGALUTAMIDE]",
    "QUANTITATIVE_RESULT": 23.8
  }
]

====

ASSAY_INFO: Half life in C57BL/6 mouse at 30 mg/kg, po by LC-MS/MS analysis
Format: ADME, organism-based
DETAILS: in vivo
half-life listing for selected molecules.

[
  {
    "MOLECULE": "Cc1ncsc1-c1ccc(CNC(=O)[C@@H]2C[C@@H](O)CN2C(=O)[C@@H](NC(=O)CCCCCCCCCCNC(=O)OC2C[C@@H](C)C=C3C=C[C@H](C)[C@H](CC[C@@H]4C[C@H](O)CC(=O)O4)[C@H]32)C(C)(C)C)cc1 (some centres not stated)",
    "UNIT_TEXT": "h",
    "half-life": 5.1
  },
  {
    "MOLECULE": "CNc1nc(Nc2ccc(C(=O)N3CCN(C[C@H]4CC[C@H](CSC(C)(C)[C@H](NC(=O)C5(F)CC5)C(=O)N5C[C@H](O)C[C@H]5C(=O)NCc5ccc(-c6scnc6C)cc5)CC4)CC3)cc2OC)ncc1Cl",
    "UNIT_TEXT": "h",
    "half-life": 21.9
  }
]

====

ASSAY_INFO: Tmax in Sprague-Dawley rat at 40 mg/kg, IG measured up to 24 hrs by LC-MS/MS analysis
Type: ADME, organism-based
DETAILS: in vivo, po
VALUE_TYPE: Tmax (h)

[
  {
    "MOLECULE": "N#Cc1cccc(-c2ccc(=O)n(Cc3cccc(-c4ncc(OCC5CCN(CC(=O)N6CCN(c7ccc8c(c7)C(=O)N(C7CCC(=O)NC7=O)C8=O)CC6)CC5)cn4)c3)n2)c1 (stereo unspecified)",
    "QUANTITATIVE_RESULT": 1.75
  }
]

====

ASSAY_INFO: Oral availability in ICR mouse at 30 mg/kg by HPLC-MS/MS analysis
Assay type: ADME, organism-based
DETAILS: in vivo

[
  {
    "SMILES_STRUCTURE": "Cc1ncsc1-c1ccc([C@H](CC[C@H](C)CCN2CCC(c3ccc4c(c3)n(C3CCCC3)c3nc(=O)c5c(Br)cccc5n43)CC2)NC(=O)[C@@H]2C[C@@H](O)CN2C(=O)[C@@H](NC(=O)C2(F)CC2)C(C)(C)C)cc1",
    "bioavailability": "22%"
  }
]
